target.system: abc isoform of human TMEM16A channel expressed in CHO cells (Homo sapiens, UniProt Q5XXA6, DEL476-501)
Construct: expressed in transfected cells; host or cells: CHO cells, doxycycline-inducible expression under Blasticidin/Zeocin selection
Sequence (Q5XXA6 with tags, fused parts or gaps isoform Q5XXA6-5 DEL539-564): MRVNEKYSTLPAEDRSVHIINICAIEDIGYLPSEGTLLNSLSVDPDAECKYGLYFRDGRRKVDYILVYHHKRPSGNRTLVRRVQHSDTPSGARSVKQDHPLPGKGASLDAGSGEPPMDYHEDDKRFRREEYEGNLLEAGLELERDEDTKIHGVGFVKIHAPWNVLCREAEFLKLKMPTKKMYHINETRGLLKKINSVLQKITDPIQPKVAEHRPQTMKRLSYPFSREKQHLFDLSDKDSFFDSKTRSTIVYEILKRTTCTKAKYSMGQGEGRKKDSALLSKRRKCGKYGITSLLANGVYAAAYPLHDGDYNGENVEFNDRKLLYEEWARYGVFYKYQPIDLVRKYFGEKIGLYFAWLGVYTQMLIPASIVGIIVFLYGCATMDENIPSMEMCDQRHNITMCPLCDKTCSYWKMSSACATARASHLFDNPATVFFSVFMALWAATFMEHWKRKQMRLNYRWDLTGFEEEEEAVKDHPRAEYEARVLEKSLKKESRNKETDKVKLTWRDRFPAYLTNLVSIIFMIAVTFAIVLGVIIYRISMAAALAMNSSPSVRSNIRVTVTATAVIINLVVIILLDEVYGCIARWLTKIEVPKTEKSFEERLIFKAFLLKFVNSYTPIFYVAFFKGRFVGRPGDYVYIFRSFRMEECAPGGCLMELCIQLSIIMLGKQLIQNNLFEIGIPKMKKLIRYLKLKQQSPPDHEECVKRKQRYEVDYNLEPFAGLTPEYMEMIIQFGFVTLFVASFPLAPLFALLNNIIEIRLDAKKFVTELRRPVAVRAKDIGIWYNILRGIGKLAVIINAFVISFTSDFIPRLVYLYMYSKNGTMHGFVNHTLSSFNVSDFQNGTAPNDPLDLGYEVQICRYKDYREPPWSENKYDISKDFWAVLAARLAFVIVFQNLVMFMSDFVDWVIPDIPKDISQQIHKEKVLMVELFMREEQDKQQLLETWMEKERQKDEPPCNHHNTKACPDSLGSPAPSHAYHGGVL
assay.name: Automated patch clamping (QPatch) assay to measure TMEM16A activity in whole-cell
Assay type: cell-based
test.parameters: maximum current at highest dose relative to reference potentiator at maximal concentration (upper limit) and vehicle (lower limit)
readout.kind: TMEM16A QPATCH assay EC50 V3 Assay Window (% TMEM16A max activation) (%)

Please review the following examples before continuing.
{"compound": "C[C@H](NC(=O)c1cc(-c2cccc(-c3ncc(C(=O)NC(C4CC4)C4CC4)o3)c2)nn1CC(O)C(F)(F)F)C1CC1 (single isomer, unassigned) [Example 9.2 (i)]", "u": "%", "value.measured": 115}
{"compound": "CCOC(=O)[C@@H](NC(=O)c1cnc(-c2cccc(-c3cc(C(=O)NC(CC)CC)n[nH]3)c2)o1)C(C)C [Example 1.1]", "u": "%", "value.measured": 100}
{"compound": "CCC(CC)NC(=O)c1cnc(-c2cccc(-c3cc(C(=O)NC(C4CC4)C4CCCO4)n[nH]3)c2)o1 (single isomer, unassigned) [Example 3.4 (iii)]", "u": "%", "value.measured": 73}

P. C[C@H](NC(=O)c1cc(-c2cccc(-c3ncc(C(=O)NC(C4CC4)C4CC4)o3)c2)nn1CC(O)C(F)(F)F)C1CC1 (single isomer, unassigned) [Example 9.2 (ii)]
Q. COC(=O)[C@@H](NC(=O)c1cnc(-c2cccc(-c3cc(C(=O)N[C@@H](C)C4CC4)n(CC(O)C(F)(F)F)n3)c2)o1)C(C)C (single isomer, unassigned) [8.1 (ii)]
Lowest TMEM16A QPATCH assay EC50 V3 Assay Window (% TMEM16A max activation)? choose P or Q Identify your selection by its label.
P
(P: 83%, Q: 124%)
